TEST_PROTOCOL: Human HepG2 cell viability assay in 384 well format
Assay type: toxicity, cell-based
Parameters: dose 125 nL, time 70.5 hour; concentration not given beside the values
MEASUREMENT_SETUP: HepG2 cells, read-out: Inhibition
// reported cytotoxicity at 70.5 h for each item listed
Give the number; % is assumed, so skip it.

Worked cases, answers included:
[
  {
    "COMPOUND": "Cc1nc(N)sc1C(=O)N1CCCC(c2nccn2CCCN(C)C)C1 (configuration not stated)",
    "UNITS_SYMBOL": "%",
    "RESULT": -5.45
  },
  {
    "COMPOUND": "CC(=O)NC(Cc1c[nH]c2cc(F)ccc12)C(=O)Nc1nncs1 (configuration not stated)",
    "UNITS_SYMBOL": "%",
    "RESULT": -2.58
  },
  {
    "COMPOUND": "O=C(CCCN1CCCCC1)NC(C(=O)O)c1ccc(Cl)cc1 (configuration not stated)",
    "UNITS_SYMBOL": "%",
    "RESULT": -5.87
  },
  {
    "COMPOUND": "FC(F)CNc1cnc(C2CCCN2)cn1 (configuration not stated)",
    "UNITS_SYMBOL": "%",
    "RESULT": 3.12
  },
  {
    "COMPOUND": "CC(C)Oc1ncc(C(=O)N2CCC(CC(N)=O)CC2)cc1Cl",
    "UNITS_SYMBOL": "%",
    "RESULT": -8.52
  }
]

Now consider a different compound.
QUERY: Field request: cytotoxicity at 70.5 h | item: CC(C)(C)C(=O)N1CCCC1c1cc(CO)[nH]n1 (configuration not stated)
RESULT: -1.34

---

Overview of reported cytotoxicity at 70.5 h across a group of molecules:
TEST_PROTOCOL: Human HepG2 cell viability assay in 384 well format
Type: toxicity, cell-based
Parameters: dose 125 nL, time 70.5 hour; concentration not given beside the values
MEASUREMENT_SETUP: HepG2 cells, read-out: Inhibition
Reply numerically in %, unit not repeated.

The examples below pair each entry with its known result.
[
  {
    "MOLECULE": "Cc1ccc(C(=O)N2CCN(C)C3(CCC(=O)N(C)CC3)C2)c(F)c1 (configuration not stated)",
    "cytotoxicity at 70.5 h (%)": -9.61
  },
  {
    "MOLECULE": "Cn1cc(C(O)CNC(=O)c2sccc2OC(F)F)cn1 (configuration not stated)",
    "cytotoxicity at 70.5 h (%)": -4.33
  },
  {
    "MOLECULE": "c1cnc(N2CCOC3(CCN(CC4CCCCC4)CC3)C2)nc1",
    "cytotoxicity at 70.5 h (%)": -4.82
  },
  {
    "MOLECULE": "Cc1ccc(-c2noc(CN3CCCC(Cn4cncn4)C3)n2)cc1 (configuration not stated)",
    "cytotoxicity at 70.5 h (%)": -1.78
  },
  {
    "MOLECULE": "O=C1CN(Cc2cn(C3CCN(C4CSCCSC4)CC3)nn2)CCN1",
    "cytotoxicity at 70.5 h (%)": -13.2
  },
  {
    "MOLECULE": "CSCCC(=O)N(C/C=C/c1ccccc1)CCO",
    "cytotoxicity at 70.5 h (%)": -5.02
  },
  {
    "MOLECULE": "CCN(C(=O)COc1nc(C(C)(C)C)no1)C1CC1",
    "cytotoxicity at 70.5 h (%)": -2.91
  },
  {
    "MOLECULE": "O=C1CC2(CCSC2)C(=O)N1Cc1coc(-c2ccccc2)n1 (configuration not stated)",
    "cytotoxicity at 70.5 h (%)": 2.52
  },
  {
    "MOLECULE": "CCc1nnc(SC2CCCN(c3cccc(F)c3)C2=O)n1C (configuration not stated)",
    "cytotoxicity at 70.5 h (%)": -8.7
  },
  {
    "MOLECULE": "COc1cc(CN(C)C(C)c2ccccn2)cc2c1OCO2 (configuration not stated)",
    "cytotoxicity at 70.5 h (%)": -13.1
  }
]

QUERY: What value of cytotoxicity at 70.5 h has been reported for the following molecule? CC(CNC(=O)c1ccc(F)cc1I)N1CCCC1 (configuration not stated)
RESULT: 22

QUERY: Any idea what cytotoxicity at 70.5 h was measured for CCN(CCOc1ccc(F)cc1)C(=O)c1ccncc1Cl ?
RESULT: -2.29
